- system.tested: T1, full-length human SIRPαV2 (CAA71403.1) on cells (human, UniProt P78324 31-504)
- T1 construct: one molecule for CHO-K1 and Expi-CHO transfectants (CAA71403.1) and for endogenous V2 on THP-1 cells and on CD14+ monocytes of V2/V2 donors; also called CHO-hSIRPαV2; αV2 WT
- measurement.notes: flow cytometry, competition with CD47 tetramer, monocytes V2V2
pIC50: −log10 of the molar value.
endpoint.label: pIC50

| binder | reported.result |
| --- | --- |
| Antibody E22 (antibody, human IgG1, kappa, L234A L235A, V domains shown) VH: QVQLQESGPGLVKPSETLSLTCTVSGGSIRDYYWSWIRQPPGKGLEWIGFIYYNGRTFYQSSLKSRVTISLDTSKNQFSLKMTSVTAADTAVYYCARVRAYSGIGLDGTDVWGQGTTVTVSS VL: DIVMTQSPLSLPVTPGEPASISCRSSQSLLYSTGYTYLDWYLQRPGQSPQLLIYGGSSRASGVPDRFSGSGSGTDFTLKISRVEAEDVGVFYCGQALQTPLTFGQGTKVEIKR | 9.52 |
| anti-SIRPα antibody SIRP AB11 (antibody, V domains shown) VH: QVQLVQSGAEVKKPGASVKVSCKASGYTFRGYGISWVRQAPGQGLEWMGWISAYGGETNYAQKLQGRVTMTTDTSTSTAYMELRSLRSDDTAVYYCAREAGSSWYDFDLWGRGTLVTVSS VL: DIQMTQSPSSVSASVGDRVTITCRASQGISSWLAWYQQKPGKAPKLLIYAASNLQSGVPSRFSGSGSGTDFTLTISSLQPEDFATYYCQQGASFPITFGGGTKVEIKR | 10.30 |
| Antibody D (antibody, human IgG1, kappa, L234A L235A, V domains shown) VH: EVQLVESGGGLVQPGGSLRLSCAASGFTFSSFDMHWVRQPTGKGLEWVSTIGIAGDTYFPGSVKGRFTISRENAKNSLYLQMNSLRAGDTAVYYCARGGNWDDALDIWGQGTMVTVSS VL: DIQMTQSPSSLSASVGDRVTITCRASQDINNYLAWFQQKPGKAPKSLIYTASSLQSGVPSKFSGSGSGTDFTLTISSLQPEDFATYYCQQYNTYPYTFGQGTKLEIKR | 10.30 |

Sourced from patent US20230012273A1
